experiment: Artificial lipid membrane binding using Biacore S51 system; conditions: DOPA liposome, 50 μM compound, PBS/5% DMSO pH 7.4, 37° C., corrected value
Decide using Value of binding response (RU): a value greater than or equal to 40 RU is met, a smaller one is not met.

Compound: O=C(O)COc1ccc(CN(Cc2ncc[nH]2)Cc2nccn2CCCN2CCC3(CCN(C4CCCCC4)CC3)C2)cc1 [Example 41(6)]
Class name: met
//
Compound: O=C(O)COc1cccc(CN(Cc2ncc[nH]2)Cc2nccn2CCCN2CCC3(CCN(C4CCCCC4)CC3)C2)c1 [Example 41(7)]
Class name: met
//
Compound: CC(C)CN1CCC2(CC1)CCN(CCCn1ccnc1CN(Cc1ccc(CC(=O)O)cc1)Cc1ncc[nH]1)C2 [Example 22(4)]
Class name: not met
//
Compound: CCC(CC)N1CCC2(CCN(CCCn3ccnc3CN(Cc3ccc(OCC(=O)O)cc3)Cc3ncc[nH]3)C2)CC1 [Example 43]
Class name: not met
//
Compound: CCC(CC)N1CCC2(CCN(CCCn3ccnc3CN(CCCC(=O)O)Cc3ncc[nH]3)C2)CC1 [Example 25(1)]
Class name: not met
//
Compound: CCC(CC)N1CCC2(CCN(CCCn3ccnc3CN(Cc3cccc(OCC(=O)O)c3)Cc3ncc[nH]3)C2)CC1 [Example 43(1)]
Class name: met

From: patent US20090325992A1
